Quick reference for protein stability index among some sequences
Test: protein stability index of a GFP-peptide fusion (GPS, HEK-293T) (PSI 1-6); higher = more stable;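 further: 24-mer peptide tiles fused after GFP, lentivirally expressed, FACS-sorted into six equal bins by GFP/DsRed ratio, decoded by Illumina sequencing, PSI is the read-weighted mean bin number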
Details: treatment: MLN4924 1 uM, 8 h; c terminus: a fixed tail appended
measured.parameter: protein stability index

[[record]]
polymer_sequence = "CCAAPGPHVALAVRYNRVGILRRI [ANKRD9]"
measured_parameter = "protein stability index"
result_value = 2.49

[[record]]
polymer_sequence = "ANAQIQILTRSWEEVSTLNAQIPE [CD207]"
measured_parameter = "protein stability index"
result_value = 3.53

[[record]]
polymer_sequence = "ATTYKHGVLTRKTHADMDGKRTPR [PSD2]"
measured_parameter = "protein stability index"
result_value = 4.63

[[record]]
polymer_sequence = "VSLTSPSAPPTSRTSSGNVWVTHE [PPFIA4]"
measured_parameter = "protein stability index"
result_value = 3.47

[[record]]
polymer_sequence = "GPMPMSMPNVMTGTMGMAPLGNTP [CLINT1]"
measured_parameter = "protein stability index"
result_value = 4.02

[[record]]
polymer_sequence = "LNVHDLDSEQNGQVTCSILAYLPF [PCDHGA10]"
measured_parameter = "protein stability index"
result_value = 2.19

[[record]]
polymer_sequence = "PENTNRQLLLQFERLVVLDYIIRN [PI4K2A]"
measured_parameter = "protein stability index"
result_value = 2.56

[[record]]
polymer_sequence = "KIREKEEWIKLDYHRRHNPKTNED [IQUB]"
measured_parameter = "protein stability index"
result_value = 4.74

[[record]]
polymer_sequence = "ESRDRPSCAPSASIPKLKLTRPVP [PWWP2B]"
measured_parameter = "protein stability index"
result_value = 4.16

[[record]]
polymer_sequence = "NDIPHSIPLEQGSSCNGPGQTTGH [FAN1]"
measured_parameter = "protein stability index"
result_value = 5.23

[[record]]
polymer_sequence = "SRASAARVGQLQEALNERHSIINA [LRRC45]"
measured_parameter = "protein stability index"
result_value = 3.97

[[record]]
polymer_sequence = "LLYDRGTKFGLFTPGSRIESILMS [CPOX]"
measured_parameter = "protein stability index"
result_value = 2.14

[[record]]
polymer_sequence = "MSVLWLEHDRETRMQYAPDLMKRL [KLHL14]"
measured_parameter = "protein stability index"
result_value = 2.45

[[record]]
polymer_sequence = "LTILPTEIETWVREHCPENRERVV [ZNF449]"
measured_parameter = "protein stability index"
result_value = 3.42

